These data points were gathered from patent US20240317847A1.

Target: T1, murine IL-11 (mouse, UniProt P47873 22-199)
T1 sequence: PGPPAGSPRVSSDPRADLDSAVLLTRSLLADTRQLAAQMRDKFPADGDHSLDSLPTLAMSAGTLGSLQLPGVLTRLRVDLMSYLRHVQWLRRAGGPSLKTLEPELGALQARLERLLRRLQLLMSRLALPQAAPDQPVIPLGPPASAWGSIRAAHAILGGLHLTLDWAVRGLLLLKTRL
Assay: cell-based or functional assay
quantity.measured: IC50, RGA 1 (nM)
Entry rule: numbers only, all in nM.

In the examples that follow, each entry is paired with its recorded IC50, RGA 1.
binder="TPP-31284 (antibody, IgG4, V domains shown, hIgG4 SPLE, lambda) VH: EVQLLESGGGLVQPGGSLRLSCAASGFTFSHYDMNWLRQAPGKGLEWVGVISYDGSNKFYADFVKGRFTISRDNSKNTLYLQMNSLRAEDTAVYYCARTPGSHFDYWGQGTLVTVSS VL: QSVLTQPPSASGTPGQRVTISCSGSSSNIGNNAVNWYQQLPGTAPKLLIYYDDLRPSGVPDRFSGSKSGTSASLAISGLRSEDEADYYCSAWDDSLNGVVFGGGTKLTVL" quantity_measured="IC50, RGA 1" recorded_number=65
binder="TPP-31308 (antibody, IgG4, V domains shown) VH: EVQLLESGGGLVQPGGSLRLSCAASGFTFSHYDMNWLRQAPGKGLEWVGVISYDSSNKFYADFVKGRFTISRDNSKNTLYLQMNSLRAEDTAVYYCARTPGSHFDYWGQGTLVTVSS VL: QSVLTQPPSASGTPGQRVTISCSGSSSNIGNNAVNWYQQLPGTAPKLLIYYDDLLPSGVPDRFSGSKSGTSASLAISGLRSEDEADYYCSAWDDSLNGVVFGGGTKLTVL" quantity_measured="IC50, RGA 1" recorded_number=63

For record TPP-31277 (antibody, IgG4, V domains shown, hIgG4 SPLE, lambda) VH: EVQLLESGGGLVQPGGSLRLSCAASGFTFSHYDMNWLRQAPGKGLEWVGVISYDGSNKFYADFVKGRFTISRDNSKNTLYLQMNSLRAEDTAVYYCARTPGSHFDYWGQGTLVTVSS VL: QSVLTQPPSASGTPGQRVTISCSGSSSNIGSNAVNWYQQLPGTAPKLLIYYDDLLPSGVPDRFSGSKSGTSASLAISGLRSEDEADYYCSAWDDSLNGVVFGGGTKLTVL the listed IC50, RGA 1 is 43
